Numbers sourced from patent US20190284192A1.

# system-under-test: BRD4 (BD2) (Homo sapiens)
# Construct: Each member comprises two tandem bromodomains (BD1 and BD2) for recognizing the acetylated lysine residues
# assay-notes: BRD4 (BD2) bromodomain binding, HTRF
# experimental-conditions: 2 h incubation at r.t.
Please go through the items and note down their IC50.
Reply numerically in nM, unit not repeated.

INPUT: Would you mind telling me what IC50 value was observed for CNS(=O)(=O)Nc1ccc2c(c1)-c1cn(C)c(=O)cc1[C@H](C)N=C2c1ccc(F)cc1 ?
OUTPUT: 9

INPUT: Consider the compound shown here: CCS(=O)(=O)Cc1ccc2c(c1)-c1cn(C)c(=O)cc1[C@H](C1CC1)N=C2c1ccc(F)cc1 What is its recorded IC50?
OUTPUT: 1

INPUT: Record request: IC50 value, item CCS(=O)(=O)Cc1ccc2c(c1)C(c1ccc(F)cc1)=NCc1cc(=O)n(C)cc1-2
OUTPUT: 204

INPUT: Tell me the measured IC50 of CCC(=O)Nc1cc2c(cc1F)C(c1ccc(F)cc1)=N[C@@H](C)c1cc(=O)n(C)cc1-2 , please.
OUTPUT: 4

---

# assay-notes: Cassette pharmacokinetic study, intravenous or oral administration
# Format: in vivo, female Balb/c nude mice
# experimental-conditions: female, Balb/c nude, mouse, whole blood; PO 2 mg/kg, N = 3, cassette
parameter: Tmax (min)
Quick note: give the figure in min, leave out the unit.

INPUT: Request the reported Tmax associated with CCS(=O)(=O)Nc1ccc(Oc2ccc(F)cc2F)c(-c2cn(C)c(=O)c3[nH]ccc23)c1
OUTPUT: 60

INPUT: GET /values?readout=Tmax&item= CCS(=O)(=O)Nc1ccc2c(c1)-c1cn(C)c(=O)cc1CN=C2c1ccc(F)cc1
OUTPUT: 40

INPUT: I would be grateful if you could share the reported Tmax for CCS(=O)(=O)Cc1ccc2c(c1)-c1cn(C)c(=O)cc1CN=C2c1ccc(F)cc1 .
OUTPUT: 40

INPUT: Item CCS(=O)(=O)Nc1cc2c(cc1Cl)C(c1ccc(F)cc1)=NCc1cc(=O)n(C)cc1-2 has what recorded Tmax?
OUTPUT: 30

INPUT: Would you mind telling me what Tmax value was observed for CCS(=O)(=O)Cc1ccc2c(c1)-c1cn(C)c(=O)cc1[C@H](C)N=C2c1ccc(F)cc1 ?
OUTPUT: 30

---

# system-under-test: BRD4 (BD2) (Homo sapiens)
# Construct: Each member comprises two tandem bromodomains (BD1 and BD2) for recognizing the acetylated lysine residues
# assay-notes: BRD4 (BD2) bromodomain binding, HTRF
# experimental-conditions: 2 h incubation at r.t.
parameter: pIC50
Field pIC50 (float): negative decimal logarithm of the concentration in molar.

INPUT: Notebook entry, BRD4 (BD2) (Homo sapiens) assay: pIC50 of CCS(=O)(=O)Cc1ccc2c(c1)-c1nn(C)c(=O)cc1C(C)N=C2c1ccc(F)cc1Cl (stereo not shown) = ?
OUTPUT: 8.52

INPUT: Lab note: need pIC50 with BRD4 (BD2) (Homo sapiens) for entry CCS(=O)(=O)Cc1ccc2c(c1)-c1cn(C)c(=O)cc1[C@H](C)N=C2c1ccc(C#N)cc1 , please look it up.
OUTPUT: 8.70

INPUT: Could you share what pIC50 was measured for CCS(=O)(=O)Cc1ccc2c(c1)-c1cn(C)c(=O)cc1[C@H](C)N=C2c1ccc(F)c(OC)c1 , tested on BRD4 (BD2) (Homo sapiens)?
OUTPUT: 9.00

INPUT: I'm curious: which pIC50 was measured for CC(C)S(=O)(=O)Cc1ccc2c(c1)-c1cn(C)c(=O)cc1[C@H](C)N=C2c1ccc(F)cc1 tested on BRD4 (BD2) (Homo sapiens)?
OUTPUT: 9.00

INPUT: Please tell me: pIC50 of Cn1cc2c(cc1=O)[C@H](CC(N)=O)N=C(c1ccc(F)cc1)c1ccc(CS(C)(=O)=O)cc1-2 , system BRD4 (BD2) (Homo sapiens)?
OUTPUT: 9.00

INPUT: Reported pIC50 for BRD4 (BD2) (Homo sapiens), given CCS(=O)(=O)Cc1cc2c(cc1OC)C(c1ccc(F)cc1)=N[C@@H](C)c1cc(=O)n(C)cc1-2 ?
OUTPUT: 9.00

INPUT: Give BRD4 (BD2) (Homo sapiens) pIC50 for COc1ccc2c(c1)C(c1ccc(F)cc1)=NCc1cc(=O)n(C)cc1-2
OUTPUT: 8.00
